tested on: CAKI-1 renal; assay: NCI-60 one-dose screen, 48 h; conditions: 10 µM
This is part of a sample that, as a whole, favours compounds with a hit. Of some 83,000 tested, about 20% had one in any assay. Calls of active or inactive are those of the source. Rule for the calls: active = growth percent below 10; inactive = the rest.
Classes used: 1 (active), 0 (inactive)

CCCCCCCNc1nc(C=O)ncc1-c1ccc(C(F)(F)F)cc1 | 0
CNc1ncc(-c2ccc(C(F)(F)F)cc2)c(NC2CCCCCC2)n1 | 0
CSc1nn(-c2ccccc2)c2ncnc(Oc3ccccc3)c12 | 0
Cc1ccc(S(=O)(=O)OCCN(CCOS(=O)(=O)c2ccc(C)cc2)c2c[nH]c(=O)[nH]c2=O)cc1 | 0
CN(C)Cc1cn(-c2ncc(-c3ccc(C(F)(F)F)cc3)c(NC3CCCCCC3)n2)nn1 | 0
Nc1nccc(Nc2ccccc2)n1 | 0
COc1cc(-c2nnc(-c3c(-c4ccc(F)cc4)nc4ccccn34)o2)cc(OC)c1OC | 0
Cc1cc(Nc2ccc(Cl)cc2)nc(NCCCNc2ccnc3cc(Cl)ccc23)n1 | 1
CC1(C)N=C(N)N=C(N)N1c1ccc(CCc2ccccc2)c(Cl)c1 | 0
ClCCOCCn1cnc2c(Cl)nc(Cl)nc21 | 1
Nc1nc(-c2ccccc2Cl)cc(-c2ccc(Cl)cc2Cl)n1 | 0
CCCCOC(=O)Oc1ccc(C(=O)Oc2ccc(OCC)cc2)cc1 | 0
C=C(C(=O)c1ccccc1)C(NC(C)(C)C)c1ccccc1 (stereo not drawn) | 1
Nc1ccc2c(c1)C1(CCC2)NC(=O)NC1=O (stereo not drawn) | 0
COc1ccc2c(c1)sc1nc(-c3ccccc3)c(-c3ccc(O)c(OC)c3)n12 | 0
CCCCCCCCCCCCCCCCN(C(C)c1ccccc1)S(=O)(=O)c1ccc(OC)c(N)c1 (stereo not drawn) | 0
CCN(CC)CCCC(C)Nc1ccc2ccc(Cl)cc2n1 (stereo not drawn) | 0
O=C1c2ccc3c4c(ccc(c24)C(=O)N1CCNCc1ccccc1)C(=O)N(CCNCc1ccccc1)C3=O | 1
Cc1ccc(Nc2cc(C)nc(NCCCNc3ccnc4cc(Cl)ccc34)n2)cc1 | 1
O=c1c2ccccc2nc(SCCN2CCCCC2)n1CCc1ccccc1 | 0
Cc1cn(C2CCCCO2)c(=O)nc1NO (stereo not drawn) | 0
COc1ccc(Cl)cc1C(=O)Nc1nc2ccc(Cl)cc2s1 | 0
O=C(N/N=C\c1cc(Cl)ccc1[N+](=O)[O-])c1ccco1 | 0

###

Parameter: growth. Scope: all listed entries.
tested on: SF-295 CNS; assay: NCI-60 one-dose screen, 48 h (100 = growth as untreated, 0 = no growth, -100 = all killed); conditions: 10 µM
This is part of a sample that, as a whole, favours compounds with a hit. Of some 83,000 tested, about 20% had one in any assay. Calls of active or inactive are those of the source. The calls were made as follows: active = growth percent below 10; inactive = the rest.
Recorded Metric: growth

N=C(N)c1ccc(-c2ccc(-c3ccccc3)o2)nc1 | 81% (inactive)
COc1cc(-c2nnc(-c3c(-c4ccc(F)cc4)nc4ccccn34)o2)cc(OC)c1OC | 74.6% (inactive)
NC(=O)SCC(=O)Nc1ccc(S(N)(=O)=O)cc1 | 107% (inactive)
COc1ccc2c(c1)sc1nc(-c3ccccc3)c(-c3ccc(O)c(OC)c3)n12 | 81.2% (inactive)
COc1ccc(-c2nn(-c3cccc(NC(=O)c4cccc(C(F)(F)F)c4)c3)cc2-c2ccncc2)cc1Cl | -10.7% (active)
O=C(c1ccc(Cl)cc1Cl)N1CCOCC1 | 140% (inactive)
O=C1/C(=C\c2ccc(F)cc2)CN(C(=O)c2ccc([N+](=O)[O-])cc2)C/C1=C\c1ccc(F)cc1 | 10.4% (inactive)
CCOC(=O)C(NC(=O)C(Cl)Cl)C(O)c1ccccc1 (stereo not given) | 76.1% (inactive)
CCOC(=O)c1ccoc1 | 108% (inactive)
COc1ccc(-c2cc(/C=C3\C(=O)Nc4ccc(OC)cc43)[nH]n2)cc1 | 1.93% (active)
CCCN(CCC)CCC(O)c1cc2c(c3ccccc13)CCCC2 (stereo not given) | 85.4% (inactive)
Nc1ccccc1NC(=O)CCCCC(=O)Nc1ccc2c(c1)/C(=C/c1ccc[nH]1)C(=O)N2 | 98.4% (inactive)
C#Cc1ccc(-n2c(/C=C/c3ccc4ccccc4c3)nc3ncccc3c2=O)cc1 | 19.6% (inactive)
CN1c2ccccc2[C@]2(Cc3ccccc3)Cc3ccccc3N[C@H]12 | 104% (inactive)
COc1ccc(OC)c(/C=C/c2nc(SCc3ccccc3)n(-c3ccc(Cl)cc3)n2)c1 | -15.4% (active)
COc1cc(C(=C2O[C@@H]([C@H]3COC(C)(C)O3)[C@H]3OC(C)(C)O[C@@H]23)c2cc(OC)c(OC)c(OC)c2)cc(OC)c1OC | 110% (inactive)
COc1ccc2c(c1)N(CCO)C1=C(C(=O)OC1)C2c1ccccc1 (stereo not given) | -11.6% (active)
Nc1c(C(=O)Nc2cccc(F)c2)sc2nc3c(cc12)C(=O)CCC3 | 7.23% (active)
CN(C)CCS(=O)(=O)CCN(C)C | 110% (inactive)
CC(=O)[C@H]1CC[C@H]2[C@@H]3CCC4=CC(=O)C=C[C@]4(C)[C@H]3CC[C@]12C | 92.5% (inactive)
N#CCCN(NC(=O)OCc1ccccc1)C(=O)OCc1ccccc1 | 99.1% (inactive)
Fc1ccc(-c2nnc(-c3c(-c4ccc(F)cc4)nc4ccccn34)o2)cc1 | 88.7% (inactive)
CN(C)CCN=c1nc2c(c(N)n1-c1ccccc1)c(=S)n(-c1ccccc1)c(=S)n2-c1ccccc1 | -61.5% (active)
O=c1[nH]c(-c2ccc(Cl)cc2)nc2sc3c(c12)CCCC3 | 32.9% (inactive)
O=C1/C(=C/c2ccc([N+](=O)[O-])o2)Oc2ccccc21 | 79.2% (inactive)
Cc1cc(N(CCCNc2ccnc3cc(Cl)ccc23)Cc2ccc3c(c2)OCO3)nc(N2CCOCC2)n1 | -9.78% (active)
Cc1cc2ccccc2nc1-c1ccccc1F | 107% (inactive)
CN1CCCNc2c(c(=O)c2=O)NCCCN(C)CCCNc2c(c(=O)c2=O)NCCCN(C)CCCNc2c(c(=O)c2=O)NCCCN(C)CCCNc2c(c(=O)c2=O)NCCCN(C)CCCNc2c(c(=O)c2=O)NCCCN(C)CCCNc2c(c(=O)c2=O)NCCCN(C)CCCNc2c(c(=O)c2=O)NCCC1 | 65.9% (inactive)
COc1ccc(-c2nsc3c2NC(=O)CC3c2ccc(F)cc2)cc1 (stereo not given) | 37.5% (inactive)
CCN1CCCC1CNC(=O)c1ncc(-c2ccc(C(F)(F)F)cc2)c(NC2CCCCCC2)n1 (stereo not given) | 69.3% (inactive)
CCCCCCNC(=O)Oc1ccc(/C(=C(/CC)Cc2ccccc2)c2ccc(OCCN3CCCCC3)cc2)cc1 | 114% (inactive)
CCCCCCN1C(=O)C2=C(c3ccc(Cl)cc3)Nc3c(c(C)nn3-c3ccccc3)C2c2ccccc21 (stereo not given) | 92.4% (inactive)
COc1ccc2c(c1)C(=O)c1c-2c(OCCN(C)C)nc2cc(OC)c(OC)cc12 | 21.5% (inactive)
O=C(Nc1ccccc1)Nc1cccc(-n2cc(-c3ccncc3)c(-c3ccc(O)c(Cl)c3)n2)c1 | -21.7% (active)
O=C(CCCCC(=O)Nc1ccc2c(c1)/C(=C/c1ccc[nH]1)C(=O)N2)NO | 102% (inactive)
O=[N+]([O-])c1ccc(N/N=C/c2cccc3ccccc23)nc1 | 126% (inactive)
O=C(O)CC(Cl)C(Cl)CC(=O)O (stereo not given) | 92.7% (inactive)
COc1ccc(-c2ccc(-c3ccc(C(=N)N)cn3)o2)cc1 | 68.7% (inactive)
COc1cc(-c2cc(/C=C/C(=O)c3ccc(N)cc3)[nH]n2)cc(OC)c1OC | 22.9% (inactive)
CN(C)C(=S)N/N=C\C=N/NC(=S)N(C)C | 68.8% (inactive)

###

system: ACHN renal; test: NCI-60 one-dose screen, 48 h; conditions: 10 µM
About 83,000 compounds went through this panel and 20% of them were active in at least one assay; those are over-represented in the sample as a whole. Active and inactive are the calls of the source. Rule for the calls: active = growth percent below 10; inactive = the rest.
Classes used: TRUE (active), FALSE (inactive)

C#Cc1ccc(-n2c(/C=C/c3ccc4ccccc4c3)nc3ncccc3c2=O)cc1 | FALSE
COc1cc(-c2cc(C(=O)N3CCN(C(=O)c4ccccc4NCc4ccco4)CC3)nc3cc(-c4ccccc4)nn23)cc(OC)c1OC | FALSE
COc1ccc([N+](=O)[O-])c(C(=O)O)c1 | FALSE
CC(=O)N(C)c1ccc(Nc2ccc(Nc3ccc(N(C)C(C)=O)cc3)c3c2C(=O)c2ccccc2C3=O)cc1 | FALSE
COc1cc(-c2cc(/C=C3\C(=O)Nc4cc(Cl)ccc43)[nH]n2)cc(OC)c1OC | FALSE
COc1cc(/C=C/C(=O)c2ccc(Cl)cc2)ccc1OS(=O)(=O)c1ccc(C)cc1 | FALSE
O=C1/C(=C\c2ccc(Cl)cc2)CN(C(=S)Nc2ccccc2)C/C1=C\c1ccc(Cl)cc1 | TRUE
CC(C)(C)c1ccc(N2CSC(=S)N(c3ccc(C(C)(C)C)cc3)C2)cc1 | FALSE
O=C1N=NC2=C1c1c3ccccc3c(O)n1CC2 | FALSE
COc1ccc(NC(=O)CSc2nc3ccccc3c(=O)n2CCc2ccccc2)cc1 | FALSE
